Please provide measured GI50 for the entries that follow.

Query block: Give GI50 for Fc1cccc(COc2ccc(Nc3ncnc4sc(-c5ccco5)cc34)cc2Cl)c1 tested on U251 CNS.
Result block: > 25 µM

Query block: Give GI50 for Nc1cc(N)c2nc(-c3ccccc3)c(Oc3ccc(F)cc3)nc2c1 tested on U251 CNS.
Result block: 23.2 µM

Query block: Give GI50 for COc1cc(/C=C2\CN(C)CC3=C2Nc2nc(SC)[nH]c(=O)c2C3c2cc(OC)c(OC)c(OC)c2)cc(OC)c1OC (centres undefined) tested on U251 CNS.
Result block: 1.76 µM

Query block: Give GI50 for C/C(=N\O)c1ccc(Nc2cc(-n3nnc4ccccc43)nc3ccccc23)cc1 tested on U251 CNS.
Result block: 6.68 µM

---

Please provide measured TGI for the entries that follow.
Tested on: PC-3 prostate
Assay: NCI tumour cell line growth inhibition, 48 h
Peptide text beside a SMILES is read from it. * marks the point of attachment. X26 = Clc1c(Cl)c(Cl)c(O*)c(Cl)c1Cl; Boc = CC(C)(C)OC(=O)*; OBn = c1ccc(CO*)cc1; Bn = c1ccc(C*)cc1

Query block: // Input: N#CC(C#N)SCc1ccccc1 . Output its TGI only.
Result block: > 100 µM

Query block: // Input: Cc1cc(OCc2nnc3sc(NC(=O)c4ccccc4)nn23)ccc1Cl . Output its TGI only.
Result block: > 100 µM

Query block: // Input: CC(C)n1c(/C=C/[C@@H](O)C[C@@H](O)CC(=O)O)c(-c2ccc(F)cc2)c2ccccc21 . Output its TGI only.
Result block: > 100 µM

Query block: // Input: CN(C)CCCNc1cc(O)c2c(c1O)C(=O)c1ccccc1C2=O . Output its TGI only.
Result block: 27.5 µM

Query block: // Input: NCCN(CCN(C(=O)Nc1ccccc1)c1ccccc1)C(=O)Nc1ccccc1 . Output its TGI only.
Result block: 90.3 µM

Query block: // Input: COC(=O)c1ccc2c(c1)C(NC(C)=O)CCc1cc(OC)c(OC)c(OC)c1-2 (stereo unspecified) . Output its TGI only.
Result block: > 36.9 µM

Query block: // Input: O=C1c2cccnc2S(=O)(=O)N1c1ccc([N+](=O)[O-])cc1 . Output its TGI only.
Result block: > 100 µM

Query block: // Input: CC(C)CC(NC(=O)C(CCC(=O)OCc1ccccc1)NC(=O)OC(C)(C)C)C(=O)NC(COCc1ccccc1)C(=O)NC(Cc1ccccc1)C(=O)Oc1c(Cl)c(Cl)c(Cl)c(Cl)c1Cl (stereo unspecified) (Boc-E(OBn)LS(Bn)F-X26; configuration not given here) . Output its TGI only.
Result block: > 100 µM

Query block: // Input: COc1ccc(C2SC(N)=Nc3c2c(C)nn3C(=O)c2ccc(Cl)cc2)cc1OC (stereo unspecified) . Output its TGI only.
Result block: > 10 µM

Query block: // Input: S=C(N/N=C/c1cc(Cl)cc(Cl)c1)NC12CC3CC(CC(C3)C1)C2 . Output its TGI only.
Result block: > 100 µM

Query block: // Input: CCOc1ccc(NCC2CC/C(=C\C=C\c3ccccc3)C2=O)cc1 (stereo unspecified) . Output its TGI only.
Result block: 49.8 µM

Query block: // Input: Cc1nc(SCC(N)=O)c2sc(=S)n(-c3ccccc3)c2n1 . Output its TGI only.
Result block: > 10 µM

Query block: // Input: Cc1cc(S(=O)(=O)Nc2n[nH]c(Nc3ccccc3)n2)c(SCC(=O)O)cc1Cl . Output its TGI only.
Result block: > 100 µM

Query block: // Input: CNC(=O)Nc1ccc(-c2nc(N3CCOCC3)nc3c2cnn3C2CCOCC2)cc1 . Output its TGI only.
Result block: 7.49 µM

Query block: // Input: Nc1cc2c3c(cccc3c1)NC2=O . Output its TGI only.
Result block: > 100 µM

Query block: // Input: Cc1cn(CCCCCOC(=O)NC(CCCNC(N)=O)C(=O)O)c(=O)[nH]c1=O (stereo unspecified) . Output its TGI only.
Result block: > 100 µM

---

Test system: ACHN renal
Assay: NCI tumour cell line growth inhibition, 48 h
Result type: GI50

Query block: Give GI50 for Cn1cc(C2=C(c3cn(C)c4ccc(N)cc34)C(=O)NC2=O)c2ccccc21 tested on ACHN renal.
Result block: 13.9 µM

Query block: Give GI50 for CSc1ccc(C2=Nn3c(nnc3-c3ccc(F)c(Cl)c3)SC2)cc1 tested on ACHN renal.
Result block: 13.7 µM

Query block: Give GI50 for O=C(Nc1ccc(OC(F)(F)F)cc1)c1sccc1NCc1ccnc2ccccc12 tested on ACHN renal.
Result block: 2.56 µM

Query block: Give GI50 for COc1ccc(-c2cc(-c3ccc(Cl)cc3)c(C#N)c(=O)n2CCCCC(=O)Nc2ccccc2N)cc1 tested on ACHN renal.
Result block: 5.25 µM

Query block: Give GI50 for CC[O-].CC[O-].O=C1C(=C([O-])c2ccccc2)C(=O)c2ccccc21.O=C1C(=C([O-])c2ccccc2)C(=O)c2ccccc21.[Ti+4] tested on ACHN renal.
Result block: > 100 µM

---

Test system: LOX IMVI melanoma
Assay: NCI tumour cell line growth inhibition, 48 h
Please provide measured TGI for the entries that follow.

Query block: // Input: C[n+]1c(-c2ccc(NC(=O)c3ccc(C(=O)Nc4ccc(-c5cn6ccccc6[n+]5C)cc4)cc3)cc2)cn2ccccc21 . Output its TGI only.
Result block: > 100 µM

Query block: // Input: NCCCCNCCCNC(=O)CNC(=O)CC(O)C(N)CCCC(NC(=O)C(CN)NC(=O)C(O)CNC(=O)CC(N)c1ccc(O)cc1)C(=O)O (centres undefined) . Output its TGI only.
Result block: > 10 µM

Query block: // Input: Nc1cc(N)c2nc(-c3ccccc3)c(Oc3ccc(F)cc3)nc2c1 . Output its TGI only.
Result block: > 100 µM

Query block: // Input: Cc1nc(SCC(N)=O)c2sc(=S)n(-c3ccccc3)c2n1 . Output its TGI only.
Result block: > 10 µM

---

Please provide measured TGI for the entries that follow.
Test system: UACC-62 melanoma
Assay: NCI tumour cell line growth inhibition, 48 h

Query block: // Input: Nc1c(S(N)(=O)=O)cc(S(N)(=O)=O)cc1S(N)(=O)=O . Output its TGI only.
Result block: > 100 µM

Query block: // Input: C#CCOCC12C=CC(O1)C1COC(=O)C12 (stereo not given) . Output its TGI only.
Result block: > 100 µM

Query block: // Input: C[n+]1c(-c2ccc(NC(=O)c3ccc(C(=O)Nc4ccc(-c5cn6ccccc6[n+]5C)cc4)cc3)cc2)cn2ccccc21 . Output its TGI only.
Result block: > 100 µM

Query block: // Input: Cc1cc(O)c2c(c1)C(O)(c1ccc3c(c1O)C(=O)c1c(O)cc(C)cc1C3(O)C1OC(CO)C(O)C(O)C1O)c1cccc(O)c1C2=O (stereo not given) . Output its TGI only.
Result block: 25.3 µM

Query block: // Input: N#Cc1nc(C2CCC(=O)O2)oc1N (stereo not given) . Output its TGI only.
Result block: > 100 µM

---

System: PC-3 prostate
Experiment: NCI tumour cell line growth inhibition, 48 h
Result type: TGI

Query block: // Input: COc1cc2cc(Oc3ccc(NC(=O)c4cccc(C(F)(F)F)c4)cc3)c(C)nc2cc1OC . Output its TGI only.
Result block: > 100 µM

Query block: // Input: Oc1c(OCc2nnc(CCCCCCCCc3nnc(COc4ccc5ccccc5c4O)o3)o2)ccc2ccccc12 . Output its TGI only.
Result block: > 100 µM

Query block: // Input: CC1(C)OC[C@@H](C[C@H](O)COCc2ccccc2)O1 . Output its TGI only.
Result block: > 100 µM

Query block: // Input: Nc1nncc2[nH]cnc12 . Output its TGI only.
Result block: > 100 µM

Query block: // Input: Cc1ccc(S(=O)(=O)c2c(O)c3ccc(O)c(C)c3oc2=O)cc1 . Output its TGI only.
Result block: > 100 µM

Query block: // Input: Clc1ccc(OCc2nnc(COc3ccc(OCc4nnc(COc5ccc(Cl)cc5Cl)o4)c(Cl)c3)o2)c(Cl)c1 . Output its TGI only.
Result block: > 100 µM

Query block: // Input: CSc1ccc(C2=Nn3c(nnc3-c3ccc(F)c(Cl)c3)SC2)cc1 . Output its TGI only.
Result block: > 100 µM

Query block: // Input: COc1cc(Nc2ccnc(N3CCN(c4ccnc5cc(Cl)ccc45)CC3)n2)cc(OC)c1 . Output its TGI only.
Result block: > 100 µM

Query block: // Input: COc1cc(OC)cc(Oc2nc3cc(F)c(F)cc3nc2-c2ccccc2)c1 . Output its TGI only.
Result block: > 100 µM

Query block: // Input: C#C[C@]1(O)CC[C@H]2[C@@H]3CC=C4c5nc(Nc6ccccn6)sc5CC[C@]4(C)[C@H]3CC[C@@]21C . Output its TGI only.
Result block: 3.99 µM

Query block: // Input: COc1ccc(-n2nnc3c(sc4ccccc43)c2=O)cc1 . Output its TGI only.
Result block: > 100 µM

Query block: // Input: CCOC(=O)c1c(NC(=O)c2ccc(C(C)C)cc2)sc2c(CN(C)C)c(O)ccc12 . Output its TGI only.
Result block: 5.71 µM

Query block: // Input: Cc1cc2c(C(C)C)c(O)c(O)c(C=Nc3cc(C(F)(F)F)ccc3Cl)c2c(O)c1-c1c(C)cc2c(C(C)C)c(O)c(O)c(C=Nc3cc(C(F)(F)F)ccc3Cl)c2c1O . Output its TGI only.
Result block: > 100 µM

Query block: // Input: C[C@H](c1ccccc1)N1C(=O)[C@@H](OCc2ccccc2)[C@H]1[C@H](COC(=O)COCc1ccccc1)OCc1ccccc1 . Output its TGI only.
Result block: > 100 µM

Query block: // Input: CS(=O)(=O)c1ccc(Cl)c([N+](=O)[O-])c1 . Output its TGI only.
Result block: 37.5 µM

Query block: // Input: O=C1N/N=C\c2ccc(cc2)OCc2cccc(n2)COc2ccc(cc2)/C=N\NC1=O . Output its TGI only.
Result block: > 25 µM

Reference source: PubChem BioAssay (NCI)
